Each recorded value in this set is attributed to paper PMC10716637.

system: HCT116; assay: MTT cytotoxicity assay, HCT116; type: cell-based, human; details: Homo sapiens, HCT-116, read-out: EC50 HCT116
Threshold check on EC50: strictly below 8 µM is y; on or above 8 µM is n.

Determine whether this molecule shows EC50 lower than 8 µM (ties excluded): CNC(=O)c1cc(Oc2ccc(NC(=O)Nc3ccc(Cl)c(C(F)(F)F)c3)cc2)ccn1 [Sorafenib, reference compound]
y

Determine if CCn1c(=O)n(CC(=O)Nc2ccc(C(=O)OC)cc2)c(=O)c2cc(I)ccc21 shows EC50 strictly lower than 8 µM.
n

Record CCn1c(=O)n(CC(=O)Nc2ccc(C(=O)NN=Cc3ccccc3)cc2)c(=O)c2cc(I)ccc21 : is its EC50 strictly below 8 µM?
y

Quick check: EC50 of CCOC(=O)c1ccc(NC(=O)Cn2c(=O)c3cc(I)ccc3n(CC)c2=O)cc1 under 8 µM?
y

---

test: Cytotoxicity against VERO normal cell lines; settings: African green monkey, VERO normal cells
measuredEndpoint: CC50 (µM)
Answer format: numeric, µM implied, no suffix.

So, CCCn1c(=O)n(CC(=O)Nc2ccc(C(=O)NN=Cc3ccccc3)cc2)c(=O)c2cc(I)ccc21 [Compound 9d] ? Its CC50 was 50.4

Note to self: CC50 recorded for CCCn1c(=O)n(CC(=O)Nc2ccc(-c3nnc(S)o3)cc2)c(=O)c2cc(I)ccc21 [Compound 8b] was 50.8

// CC50 value for CCn1c(=O)n(CC(=O)Nc2ccc(C(=O)NN=Cc3ccc(C)cc3)cc2)c(=O)c2cc(I)ccc21 [Compound 9b] : 49.2
